read-out: Monocyte Chemoattractant Protein-1 (MCP1), CCL2 (gene 6347); assay: BSK_4H_MCP1: BioMAP Diversity Plus: 4H Assay for Monocyte Chemoattractant Protein-1 (MCP1) Biomarker Activity (AID 2283018); conditions: primary human endothelial cells (HUVEC); actives raise or lower the signal
Activity calls are given as the source filed them. Rule for the calls: active = hit-call score of the fitted dose curve at least 0.9, where 1 is the maximum; inactive = score below 0.9.
Permitted responses: active, inactive

compound	category label
Nc1ccc(-c2ccc(N)cc2)cc1	inactive

Inquiry: GET /call?item= Oc1ccc(C(c2ccc(O)cc2)(C(F)(F)F)C(F)(F)F)cc1 returns the recorded outcome of this test.
Reply text: active

Inquiry: Tell me the recorded outcome of this test for O=C(NC(=O)c1cc(F)c(F)cc1Cl)Nc1cc(F)ccc1N1CCC(C(=O)O)CC1 .
Reply text: inactive

Inquiry: Tell me the assay call for Cc1cc(O)ccc1Cl please.
Reply text: inactive

Inquiry: I would be grateful if you could indicate the recorded call for O=C(NC(=O)c1c(F)cccc1F)Nc1cc(Cl)c(OC(F)(F)C(F)F)c(Cl)c1 .
Reply text: inactive

Inquiry: Please state the recorded outcome for this compound: Clc1ccc(C(c2ccccc2Cl)C(Cl)(Cl)Cl)cc1 (stereo not drawn)
Reply text: active

Inquiry: Query: recorded result category for CC1=C2C[C@H]3[C@@H](CC=C4C[C@@H](O)CC[C@@]43C)[C@@H]2CC[C@]12O[C@@H]1C[C@H](C)CN[C@H]1[C@H]2C in this test
Reply text: inactive

Inquiry: Lab log entry: Cc1ccccc1O — outcome as called in the assay?
Reply text: inactive

Inquiry: Could you check what this test reported for CN(C)CCO ?
Reply text: inactive

Inquiry: How was CC#Cc1cc(C)nc(Nc2ccccc2)n1 classified in this test?
Reply text: inactive

Inquiry: I would be grateful if you could indicate the recorded call for CCC(=O)O[C@H]1CC[C@H]2[C@@H]3CCC4=CC(=O)CC[C@]4(C)[C@H]3CC[C@]12C .
Reply text: active

Inquiry: // param item: Cc1cc2c3c(c1)C(c1ccccc1)=N[C@@H](NC(=O)c1ccncc1)C(=O)N3CC2 ; yields the recorded call
Reply text: inactive

Source of measurements: PubChem BioAssay (EPA / NIEHS)
